Where do these numbers come from? They come from patent EP0063381A1.

test system: Rinderherz PDE "Boehringer"; assay: Inhibition of phosphodiesterase (PDE), substrate cAMP; assay type: biochemical, Rind; settings: compound 0,2 mM; substrate cAMP 0,15 mM; Rinderherz PDE in Glycerin; 200 µM
measured attribute: Hemmung der PDE in %

See these solved cases before continuing.
molecule="CCCCCCn1c(=O)c2cn(C)nc2n(C)c1=O [VIII]" measured_attribute="Hemmung der PDE in %" reported_measurement=42,04%
molecule="CCCCCCn1c(=O)n(C)c(=O)c2cn(CC)nc21 [III]" measured_attribute="Hemmung der PDE in %" reported_measurement=58,51%

Need Hemmung der PDE in % for each of these molecules.
1. CCCCCCn1c(=O)c2cn[nH]c2n(C)c1=O [VII]
2. CCCCCCn1c(=O)n(C)c(=O)c2cn(CCCC)nc21 [V]
3. CCCCCCn1c(=O)n(C)c(=O)c2cn(C)nc21 [II]
4. CCCCCCn1c(=O)n(C)c(=O)c2c[nH]nc21 [I]

A.
52,43%
70,86%
47,41%
47,84%

Need Hemmung der PDE in % for each of these molecules.
1. Cn1c(=O)c2[nH]cnc2n(C)c1=O [Theophyllin, reference compound]
2. CCCCCCn1cc2c(=O)n(C)c(=O)n(CCCCCC)c2n1 [VI]
3. CCCCCCn1c(=O)c2cn(CC)nc2n(C)c1=O [IX]
4. CCCCCCn1c(=O)n(C)c(=O)c2cn(CCC)nc21 [IV]
5. CCCCCCn1cc2c(=O)n(CCCCCC)c(=O)n(C)c2n1 [XI]
6. CCCCCCn1c(=O)c2cn(CCCC)nc2n(C)c1=O [X]

A.
["37,13%", "37,30%", "71,52%", "63,04%", "18,35%", "37,83%"]
